assay: NCI Yeast Anticancer Drug Screen. Data for the cln2 rad14 strain (AID 165);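 note: 0% = growth equal to vehicle treated cultures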; conditions: S. cerevisiae cln2 rad14 strain, at 50.0 µM (retest, dose inferred, filed as 5.0)
This is part of a sample that, as a whole, favours compounds with a hit. Of some 79,000 tested, about 15% had one in any assay. Calls of active or inactive are those of the source. Cut-off read from the data, not from the text of the source: active = growth inhibition above about 70%; inactive = the rest.
Labels: yes (active), no (inactive)

compound="COC1OC2COC(c3ccccc3)OC2C(NC(=S)SCc2ccccc2)C1O (centres undefined)" category_label=yes
compound=O=C1CSC2(CCN(CCCN3c4ccccc4Sc4ccc(Cl)cc43)CC2)N1 category_label=yes
compound=O=C1OCCCOC(=O)c2cc(ccc2O)OCC#CC#CCOc2ccc(O)c1c2 category_label=no
compound=N#Cc1ccc(C(F)(F)F)cc1[N+](=O)[O-] category_label=yes
compound=Cc1csc(N)[n+]1CCC(=O)[O-] category_label=no
compound="Clc1ccc(OCCC(Cn2ccnc2)c2ccc(Cl)cc2Cl)c(Cl)c1 (centres undefined)" category_label=yes
compound=C/C=C\c1cc2c(cc1CC#N)OCO2 category_label=yes
compound=COc1ccc(/C=C/c2ccnnc2)c(OC)c1OC category_label=no
compound=O=C1c2ccccc2C(=O)c2c1ccc(O)c2O.[Cu] category_label=yes
compound="CC(=O)OC1COC(n2nnc(C#N)c2C#N)C(OC(C)=O)C1OC(C)=O (centres undefined)" category_label=no
compound=CCCCCCCCCCCCSC1=C(N)C(=O)c2ccccc2C1=O category_label=no
compound=C/C(=N\NC(=S)NC(C)(C)C)c1ccccn1 category_label=yes
compound=c1ccc2c(c1)CCN2CCc1c[nH]c2ccccc12 category_label=no
compound="C/C(=C/C(=O)N1c2ccccc2CC1c1c[nH]c2ccccc12)C(=O)O (centres undefined)" category_label=no
compound=C#CCNC1=CC(=O)CCC1 category_label=no
compound="O=C(CC1C=Cc2ccccc2N1C(=O)c1ccccc1)c1ccccc1 (centres undefined)" category_label=yes
compound="Cc1ccc(S(=O)(=O)CC2(Br)Cc3ccccc3C2=O)cc1 (centres undefined)" category_label=yes
compound="C/C(=N\\NC(N)=S)C(CN1CCCCC1)C(C1=C(O)c2ccccc2OC1)c1ccccc1 (centres undefined)" category_label=no
compound=CCc1nc(N)nc(N)c1-c1ccc(N2CCCCC2)c([N+](=O)[O-])c1 category_label=no
compound=CCC=Nc1c(O)cc(-c2ccccc2)n(C)c1=O category_label=no
compound=c1ccc(Cn2nnnc2-c2ccccc2)cc1 category_label=no
compound="CCCCCCCCCCCCCCCCNC(C)c1ccccc1 (centres undefined)" category_label=no
compound=COC(=O)CCc1c(Cc2ccc[nH]2)[nH]c(C(=O)OCc2ccccc2)c1C category_label=yes
compound="Cc1c(Cl)ccc2c(C(O)CNCc3ccccc3)cc(-c3ccc(Cl)cc3)nc12 (centres undefined)" category_label=yes

====

experiment: NCI Yeast Anticancer Drug Screen. Data for the mec2-1 strain (AID 157); details: S. cerevisiae mec2-1 strain, at 50.0 µM (retest, dose inferred, filed as 5.0), active compounds read high
This is part of a sample that, as a whole, favours compounds with a hit. Of some 79,000 tested, about 15% had one in any assay. Where a SMILES comes first, the peptide text is derived from it. The star is where a group is joined. Trt = c1ccc(C(c2ccccc2)(c2ccccc2)*)cc1; Cbz = O=C(OCc1ccccc1)*
Measurement Kind: growth inhibition (%)

compound="CCOC(=O)CCC(NC(=O)C(CSC(c1ccccc1)(c1ccccc1)c1ccccc1)NC(=O)OCc1ccccc1)C(=O)NC(CCC(=O)OCC)C(=O)NC(CCC(=O)OCC)C(=O)NC(CCC(=O)OCC)C(=O)NC(CSC(c1ccccc1)(c1ccccc1)c1ccccc1)C(=O)OC (stereo not drawn) (Cbz-C(Trt)E(OEt)E(OEt)E(OEt)E(OEt)C(Trt)-OMe; configuration not given here)" data_value=63
compound=CCOc1ccccc1C(=O)Oc1cccc(C)c1 data_value=-18
compound=CC(C)(C)NC(=S)N/N=C/c1cc(Cl)cc(Cl)c1O data_value=84
compound="OC(c1ccccc1)(C(F)(F)F)C(O)(c1ccccc1)C(F)(F)F (stereo not drawn)" data_value=99
compound=CN(C)C(=S)SSSSC(=S)N(C)C data_value=99
compound=CC(C)C(=O)[O][Bi]([c]1ccccc1)[c]1ccccc1 data_value=78
compound=COC(=O)/C(=C/C=C(c1ccccc1)c1ccccc1)N(C(C)=O)C(C)=O data_value=25
compound=N#C/C(=C1C=C/C(=N/O)C=C/1Cl)c1ccccc1 data_value=4
